Just for reference, paper PMC6732210 is where these values come from.

test-target: TNF-α (Homo sapiens, UniProt P01375)
Sequence (P01375 77-233 limits assumed): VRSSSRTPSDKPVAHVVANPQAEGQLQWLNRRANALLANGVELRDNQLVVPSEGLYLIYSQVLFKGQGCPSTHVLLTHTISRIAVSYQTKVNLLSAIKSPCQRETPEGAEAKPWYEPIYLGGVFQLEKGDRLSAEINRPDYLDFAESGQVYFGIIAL
run-description: SPR-based binding assay, immobilized TNF-α
experimental-conditions: read-out: Kd (μM) TNF-α, 2–128 μM, PBS with 5% DMSO
measure-name: Kd (µM)

a: O=C1Nc2c(S(=O)(=O)Nc3ccccc3)cc(S(=O)(=O)Nc3ccccc3)c3cccc1c23
b: O=C(O)CCC(=O)Nc1sc2c(c1C(=O)Nc1cccc3ccccc13)CCCC2
c: O=c1c(N=Nc2nc3ccccc3s2)c(-c2ccccc2)[nH]n1-c1ccc([N+](=O)[O-])cc1
-- ask Sort low-to-high on Kd, please. Put the labels in the order asked and list them.
-- reply c, a, b
